TARGET_DESC: NADPH oxidase 2 (Homo sapiens) (UniProt P04839)
Sequence (P04839 whole entry, looked up): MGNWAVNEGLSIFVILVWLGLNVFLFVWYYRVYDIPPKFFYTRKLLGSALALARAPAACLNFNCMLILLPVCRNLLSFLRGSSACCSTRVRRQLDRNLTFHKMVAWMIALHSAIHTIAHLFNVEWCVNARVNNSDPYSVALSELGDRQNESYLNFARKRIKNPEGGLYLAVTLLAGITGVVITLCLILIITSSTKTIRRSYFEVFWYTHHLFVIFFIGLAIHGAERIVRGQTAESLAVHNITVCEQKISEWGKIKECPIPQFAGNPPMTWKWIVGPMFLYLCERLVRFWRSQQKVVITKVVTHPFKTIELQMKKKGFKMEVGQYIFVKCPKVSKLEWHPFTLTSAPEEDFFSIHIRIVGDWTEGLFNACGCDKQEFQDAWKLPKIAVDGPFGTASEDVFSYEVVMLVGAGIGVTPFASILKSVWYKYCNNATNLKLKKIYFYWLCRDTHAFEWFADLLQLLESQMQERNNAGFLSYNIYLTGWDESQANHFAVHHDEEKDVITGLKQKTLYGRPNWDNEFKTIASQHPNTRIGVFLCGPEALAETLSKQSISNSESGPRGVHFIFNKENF
PROCEDURE_TEXT: NOX2-dependent H2O2 signal modulators, primary screen, NOX inhibitor project, cell-based, HEK293-NOX2, PMA-stimulated, Amplex Red fluorescence (AID 1159); also: test concentration not given here
MEASUREMENT_CONDITIONS: 45 min, higher = more signal, called active from +8 up or from −8 down
EXPERIMENTAL_ENDPOINT: z-score

1) C=C(C)C1CCC(C(O)C2C=CC3C(=O)N(C)C(=O)C3N2N2CCCCC2)CC1 (stereo unspecified) : -0.128
2) CN1C(=O)C2C=CC(C(O)c3ccc(F)cc3)N(Nc3ccccc3)C2C1=O (stereo unspecified) : -1.41
3) COCCCNC(=O)[C@@]1(Cc2ccccc2CN=[N+]=[N-])N=C(c2ccc(OCCCO)cc2)O[C@H]1c1ccccc1 : -1.79
4) COCCOC(=O)N1C(=O)[C@@]2(c3cc(C#Cc4ccc(OC)cc4)ccc31)[C@H](c1ccccc1OCCO)N1[C@H](c3ccccc3)[C@H](c3ccccc3)OC(=O)[C@H]1[C@@H]2C(=O)N1CCCCCCC1 : -0.126
5) O=C1O[C@@H](c2ccccc2)[C@@H](c2ccccc2)N2[C@@H](c3ccc(OCCO)cc3)[C@]3(C(=O)Nc4ccccc43)[C@@H](C(=O)O)[C@H]12 : 0.262
6) [N-]=[N+]=NCc1ccccc1[C@H]1OC(c2ccc(OCCCO)cc2)=N[C@@]1(CCS(=O)(=O)c1ccccc1)C(=O)NCC(O)CO (stereo partly specified) : 1.47
7) O=c1n(-c2ccccc2)c(=O)n2n1CC(COc1ccccc1)=C([C@H](O)CCc1ccccc1)[C@@H]2CO : -0.878
8) N#Cc1ccc(NN2C(C(O)c3ccc(F)cc3)C=CC3C(=O)N(c4ccccc4)C(=O)C32)cc1 (stereo unspecified) : -1.33
9) C=C(COC)/C(=C/C[C@H](OC(C)=O)c1ccc(OCCO)cc1)c1cc(C(=O)OC)ccc1OC : 1.6
10) COC(=O)Cn1c(C(=O)N(C)C)cc2c1C[C@H]1CN(C(=O)c3ccccc3)[C@@](Cc3ccc(F)cc3)(C(=O)OC)[C@@H]21 : 0.174
11) C=CCNC(=O)[C@H]1[C@@H]2C(=O)O[C@@H](c3ccccc3)[C@@H](c3ccccc3)N2[C@@H](c2ccc(O)cc2)[C@]12C(=O)Nc1ccc(C#CC3(O)CCCCCC3)cc12 : 1.71
12) CCCCC(=C=CC[C@@H](O)c1ccccc1OCCO)C[C@@H](O)COCc1ccccc1 : -0.123
13) CN(C)C(=O)C1N=C(c2ccc(OCCCO)cc2)N(c2ccccc2)O1 (stereo unspecified) : -4.12
14) CC1CC/C=C\[C@H]2OC34C=CCN(C(C)C)C(=O)[C@H]3N(CCCCCCO)C(=O)[C@@H]4C2C(=O)O1 (stereo partly specified) : 0.882
15) O=C1NC(=O)C2C1C=CC(C(O)c1ccco1)N2Nc1ccccn1 (stereo unspecified) : -1.35
16) C=C(COC)C(=O)CC[C@@H](OC(=O)c1cccnc1)c1ccc(OCCO)cc1 : 0.838

----------
# Lookup of reported z-score keyed by entry
PROCEDURE_TEXT: inhibitors of hydroxyurea-induced Chk1 phosphorylation, primary screen, imaging, HeLa, phospho-Chk1 nuclear intensity (AID 1187); also: test concentration not given here
MEASUREMENT_CONDITIONS: hydroxyurea-induced phospho-Chk1 immunofluorescence imaging, higher = more signal
EXPERIMENTAL_ENDPOINT: z-score

1) COC(=O)[C@@]1(Cc2ccc(F)cc2)[C@H]2c3cc(C(=O)N4CCCC4)n(CCN4CNCC4=O)c3C[C@H]2CN1C(=O)c1ccccc1 : 0.44
2) CCOc1cc(C(O)C2C=CC3C(=O)N(C)C(=O)C3N2Nc2ccccc2)ccc1O (centres undefined) : -0.677
3) NC(N)=NCCCn1cc(CNC(=O)[C@@H](N)Cc2ccccc2)nn1 : -0.174
4) C=C(COC)/C(=C/C[C@H](OC(=O)c1ccncc1)c1ccccc1OCCO)c1cnc2ccccc2c1 : -0.166
5) COc1ccc(C(O)C2C=CC3C(=O)N(c4ccccc4)C(=O)C3N2Nc2ccc([N+](=O)[O-])cc2)cc1 (centres undefined) : -0.355
6) O=C(NCCCCCNC(=O)/C(Cc1ccccc1)=N/O)OCc1ccccc1 : 0.238
7) Cc1ccc(S[C@]2(C(=O)NCCCN(C)C)CC(=O)N(C3CCCCC3)[C@@H]2c2ccc(CO)cc2)cc1 : 0.866
8) CCCC[C@@H]1C[C@H]1[C@@H](NC(=O)Cc1ccccc1)c1ccc(-c2ccccc2)cc1 : -0.541
9) O=C1O[C@H](c2ccccc2)[C@H](c2ccccc2)N2[C@H]1[C@@H](C(=O)Nc1nc3ccccc3s1)[C@]1(C(=O)Nc3ccccc31)[C@H]2c1ccc(OCCO)cc1 : -0.0249
10) COCCOC(=O)N1C(=O)[C@@]2(c3cc(C#CC4=CCCCC4)ccc31)[C@H](C(=O)N1CCCCCCC1)[C@H]1C(=O)O[C@H](c3ccccc3)[C@H](c3ccccc3)N1[C@@H]2c1ccc(O)cc1 : -0.932
11) COc1cccc(/C=C/C=O)c1 : 0.769
12) C=CCOC(=O)[C@H]1[C@@H]2C(=O)O[C@@H](c3ccccc3)[C@@H](c3ccccc3)N2[C@@H](c2ccc(OCCOC(=O)[C@H]3C[C@H]4C(=O)N[C@@H](CC(C)C)C(=O)N4[C@H]3c3cccc(OCCO)c3)cc2)[C@]12C(=O)Nc1ccc(I)cc12 : -1.19
13) O=C1OCC=C[C@H]2OC34C=CCN(Cc5ccccc5)C(=O)[C@H]3N(CCCCCCO)C(=O)[C@@H]4[C@@H]12 (some centres undefined) : -0.232
14) [N-]=[N+]=NCc1ccccc1C[C@@]1(C(=O)N2CCCCC2)N=C(c2ccc(OCCCO)cc2)O[C@@H]1c1ccccc1 : -0.234
15) CN1C(=O)C2C=CC(C(O)c3ccccn3)N(N(c3ccccc3)c3ccccc3)C2C1=O (centres undefined) : -0.024
16) CCCCC(=C=CC[C@@H](O)c1ccccc1OCCO)C[C@@H](O)COCc1ccccc1 : 1.06
17) C[C@H]1NC(=O)[C@@]23C(=O)N[C@@H](Cc4ccccc4)C2[C@H](C)[C@@]2(C)O[C@H]2C3/C=C/C/C=C\CNC(=O)[C@H](Cc2ccccc2)NC1=O (some centres undefined) : 0.368
18) COC(=O)[C@@]1(Cc2ccc(OC)cc2)[C@H]2c3cc(C(=O)N(C)C)n(Cc4ccc(Cl)c(C(F)(F)F)c4)c3C[C@H]2CN1C(=O)c1ccccc1 : 0.127
19) CN1C(=O)C2C=CC(C(O)C#Cc3ccccc3)N(Nc3ccccc3)C2C1=O (centres undefined) : 0.113
20) C=C(COC)/C(=C/C[C@H](OC(C)=O)c1ccc(OCCO)cc1)c1cc(C(=O)OC)ccc1OC : 0.98
21) COc1ccc([Si](C)(C)[C@@H]2[C@@H](CC(=O)N3Cc4ccccc4C[C@H]3CO)O[C@]3(C(=O)N(C)c4ccccc43)[C@H]2C)cc1 : -0.901
22) COc1ccc(CCNC(=O)[C@@]2(Sc3ccc(C)cc3)CC(=O)N(C3Cc4ccccc4C3)[C@@H]2c2ccc(CO)cc2)cc1 : -0.452
23) C=CCOC(=O)[C@H]1[C@@H]2C(=O)O[C@@H](c3ccccc3)[C@@H](c3ccccc3)N2[C@@H](c2ccc(OCCOC(=O)[C@@H]3C[C@@H]4C(=O)N[C@@H](CCCCNC(C)=O)C(=O)N4[C@@H]3c3ccc(O)cc3)cc2)[C@]12C(=O)Nc1ccc(I)cc12 : 0.0348
24) C[N+](C)(C)CCCCCCNC(=O)[C@H]1C[C@H]2C(=O)N[C@@H](Cc3ccccc3)C(=O)N2[C@H]1c1ccc(O)cc1 : 0.14

Values from PubChem BioAssay
